Record set of IC50 for target or system Serine/threonine-protein kinase B-raf (Homo sapiens, UniProt P15056, V600E).
observable: IC50 (µM)

>>> df
                          structure_notation  observable  result_comparator  reported_measurement
 0  COc1cc2ncnc(Oc3cccc(NC(=O)Nc4cc(C(C)(C)C)nn4Cc4ccccc4)c3)c2cc1OC        IC50                  =                  0.48
 1  COc1cc2ncnc(Oc3cccc(NC(=O)Nc4cc(C(C)(C)C(F)(F)F)no4)c3)c2cc1OC        IC50                  =                 0.174
 2  COc1cc2ncnc(Oc3cccc(NC(=O)Nc4cc(C5CCCC5)on4)c3)c2cc1OC        IC50                  =                 0.134
 3  COc1cc2ncnc(Oc3cccc(NC(=O)Nc4cc(C)on4)c3)c2cc1OC        IC50                  >                    15
 4  COc1cc2ncnc(Oc3cccc(NC(=O)Nc4cc(-c5ccccc5)on4)c3)c2cc1OC        IC50                  =                 0.956
 5  COCC(C)(C)c1cc(NC(=O)Nc2cccc(Oc3ncnc4cc(OC)c(OC)cc34)c2)no1        IC50                  =                 0.324
 6  COc1cc2ncnc(Oc3cccc(NC(=O)Nc4cc(C(C)C)on4)c3)c2cc1OC        IC50                  =                 0.355
 7  COc1cc2ncnc(Oc3cccc(NC(=O)Nc4cc(C(C)(C)C)nn4-c4ccccc4)c3)c2cc1OC        IC50                  =                 0.021
 8  COc1cc2ncnc(Oc3cccc(NC(=O)Nc4cc(C(C)(C)F)on4)c3)c2cc1OC        IC50                  =                 0.276
 9  COc1cc2ncnc(Sc3cccc(NC(=O)Nc4cc(C(C)(C)C(F)(F)F)on4)c3)c2cc1OC        IC50                  =                 0.142
10  COc1cc2ncnc(Oc3cccc(NC(=O)Nc4cc(C(C)C)no4)c3)c2cc1OC        IC50                  =                  0.34
11  COc1cc2ncnc(Sc3cccc(NC(=O)Nc4cc(C(C)(C)F)no4)c3)c2cc1OC        IC50                  =                 0.084
12  COc1cc2ncnc(Oc3cccc(NC(=O)Nc4cc(C(C)(C)C)nn4C)c3)c2cc1OC        IC50                  =                 0.336
13  COc1cc2ncnc(Oc3cccc(NC(=O)Nc4cc(C(F)(F)F)no4)c3)c2cc1OC        IC50                  =                  2.23
14  COc1cc2ncnc(Oc3cccc(NC(=O)Nc4cc(C(C)(C)C(F)(F)F)on4)c3)c2cc1OC        IC50                  =                 0.082
15  COc1cc2ncnc(Oc3cccc(NC(=O)Nc4cc(C(C)(F)F)no4)c3)c2cc1OC        IC50                  =                 0.645
16  COc1cc2ncnc(Oc3cccc(NC(=O)Nc4cc(-c5ccccc5)no4)c3)c2cc1OC        IC50                  >                    15
17  COc1cc2ncnc(Oc3cccc(NC(=O)Nc4cc(C(C)(C)CO)on4)c3)c2cc1OC        IC50                  =                 0.649
18  COc1cc2ncnc(Oc3cccc(NC(=O)Nc4cc(C5CCCC5)no4)c3)c2cc1OC        IC50                  =                  1.13
19  COc1cc2ncnc(Oc3cccc(NC(=O)Nc4cc(C5(C(F)(F)F)CC5)on4)c3)c2cc1OC        IC50                  =                 0.183
20  COc1cc2ncnc(Oc3cccc(NC(=O)Nc4cc(C(C)(C)F)no4)c3)c2cc1OC        IC50                  =                 0.155
21  COc1cc2ncnc(Oc3cccc(NC(=O)Nc4cnn(C(C)(C)C)c4)c3)c2cc1OC        IC50                  =                  1.13
22  COc1cc2ncnc(Oc3cccc(NC(=O)Nc4cc(C(C)(C)C(F)(F)F)nn4-c4ccccc4)c3)c2cc1OC        IC50                  =                 0.062
23  COc1cc2ncnc(Sc3cccc(NC(=O)Nc4cc(C5(C(F)(F)F)CC5)on4)c3)c2cc1OC        IC50                  =                 0.469
24  COc1cc2ncnc(Oc3cccc(NC(=O)Nc4cc(C(C)(C)C)nn4C4CCCCC4)c3)c2cc1OC        IC50                  >                  1.67
25  COc1cc2ncnc(Oc3cccc(NC(=O)Nc4cc(C5(C(F)(F)F)CCC5)no4)c3)c2cc1OC        IC50                  =                 0.308
26  COc1cc2ncnc(Oc3cccc(NC(=O)Nc4cc(C(C)(C)C)nn4CC(C)C)c3)c2cc1OC        IC50                  =                 0.681
27  COc1cc2ncnc(Oc3cccc(NC(=O)Nc4cc(C(C)(CF)CF)on4)c3)c2cc1OC        IC50                  =                 0.109
28  COc1cc2ncnc(Sc3cccc(NC(=O)Nc4cc(C(C)(CF)CF)on4)c3)c2cc1OC        IC50                  =                 0.093
